- tgt: T1, Human CXCR2 (human, UniProt P25025 1-360)
- T1 sequence: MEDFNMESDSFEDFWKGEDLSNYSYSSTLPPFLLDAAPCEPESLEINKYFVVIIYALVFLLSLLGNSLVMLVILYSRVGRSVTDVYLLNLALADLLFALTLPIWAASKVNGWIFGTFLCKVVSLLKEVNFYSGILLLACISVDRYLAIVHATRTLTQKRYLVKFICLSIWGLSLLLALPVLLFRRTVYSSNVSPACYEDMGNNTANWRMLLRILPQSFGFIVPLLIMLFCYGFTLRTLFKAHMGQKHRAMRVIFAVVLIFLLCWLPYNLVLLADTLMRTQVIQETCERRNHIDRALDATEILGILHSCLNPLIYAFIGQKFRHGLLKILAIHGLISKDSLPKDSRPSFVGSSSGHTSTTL
- assay_summary: cell-based or functional assay
# Lookup of reported [35S]GTPγS % inhibition of max, ENA-78 keyed by entry
measure_name: [35S]GTPγS % inhibition of max, ENA-78 (%)

• CXCR20030 (other, not shown: small tags and cut ends) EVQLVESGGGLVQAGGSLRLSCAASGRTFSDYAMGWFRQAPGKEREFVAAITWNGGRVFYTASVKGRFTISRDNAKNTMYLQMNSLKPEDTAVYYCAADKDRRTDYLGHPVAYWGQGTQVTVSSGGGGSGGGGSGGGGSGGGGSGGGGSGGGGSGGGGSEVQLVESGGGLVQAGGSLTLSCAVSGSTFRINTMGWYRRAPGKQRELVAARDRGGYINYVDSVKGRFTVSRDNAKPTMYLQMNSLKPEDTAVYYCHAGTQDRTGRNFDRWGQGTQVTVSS = 100
• CXCR20014 (bispecific antibody, not shown: small tags and cut ends) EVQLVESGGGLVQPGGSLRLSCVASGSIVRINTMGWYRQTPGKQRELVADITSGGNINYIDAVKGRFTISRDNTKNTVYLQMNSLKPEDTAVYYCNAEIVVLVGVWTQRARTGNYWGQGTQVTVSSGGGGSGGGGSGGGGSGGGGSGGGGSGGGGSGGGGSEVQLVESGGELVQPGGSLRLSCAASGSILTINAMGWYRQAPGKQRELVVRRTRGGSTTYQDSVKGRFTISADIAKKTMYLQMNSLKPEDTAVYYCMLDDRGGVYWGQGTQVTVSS = 100
• CXCR20035 (other, not shown: small tags and cut ends) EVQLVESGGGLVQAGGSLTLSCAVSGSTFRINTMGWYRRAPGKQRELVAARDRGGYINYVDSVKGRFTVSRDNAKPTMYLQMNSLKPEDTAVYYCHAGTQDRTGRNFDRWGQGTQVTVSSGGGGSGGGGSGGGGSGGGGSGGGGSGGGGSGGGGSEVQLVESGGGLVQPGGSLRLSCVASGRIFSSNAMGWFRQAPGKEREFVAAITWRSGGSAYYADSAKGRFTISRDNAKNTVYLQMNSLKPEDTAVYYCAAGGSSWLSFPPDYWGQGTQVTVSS = 100
